- measurement.protocol: label from the status in PepcDB records;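 note: failed if final PepcDB status was selected cloned or expressed and not failed if soluble or beyond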
measured.attribute: protein production

biosequence	measurement
MKKISILFIFSLILGLFVSEVSAAGPRLKKRPKHVVLVAFDGLSAVAIRNHPMPNFNRLMKEGASTLNNRSILPSSSAPNWASMFTGVGPELHGYTTWGSKTPEIPPFITNQYGRFPGLYGLLRDTHPKAELGYIYEWDGMKYLVDSLAINHFVHAPQTKDHPKGATQFAVNYLKEKKPMYCAVIFEYPDHTGHTYKWESKEYYEKLDELDGYLGEIVAAIEEAGMMDETVIILTADHGGIGTNHGGKTLNEMETPLVFYGKGVKKNYKITESTMVIDVPATEAWLLGVEPHEAWLGNPVTTAFFTK	failed
MDCRKMARFSYSVIWIMAISKVFELGLVAGLGHQEFARPSRGYLAFRDDSIWPQEEPAIRPRSSQRVPPMGIQHSKELNRTCCLNGGTCMLGSFCACPPSFYGRNCEHDVRKENCGSVPHDTWLPKKCSLCKCWHGQLRCFPQAFLPGCDGLVMDEHLVASRTPELPPSARTTTFMLVGICLSIQSYY	failed
MHRTTRIKITELNPHLMCVLCGGYFIDATTIIECLHSFCKTCIVRYLETSKYCPICDVQVHKTRPLLNIRSDKTLQDIVYKLVPGLFKNEMKRRRDFYAAHPSADAANGSNEDRGEVADEDKRIITDDEIISLSIEFFDQNRLDRKVNKDKEKSKEEVNDKRYLRCPAAMTVMHLRKFLRSKMDIPNTFQIDVMYEEEPLKDYYTLMDIAYIYTWRRNGPLPLKYRVRPTCKRMKISHQRDGLTNAGELESDSGSDKANSPAGGVPSTSSCLPSPSTPVQSPHPQFPHISSTMNGTSNSPSGNHQSSFANRPRKSSVNGSSATSSG	failed

* * *

- measurement.protocol: label from the status in PepcDB records

biosequence	protein production
MKKILGTLLAVLFSFMAINDSAAQNTVLRFNKDGKFKIVQFTDVHFKYGNPASDVALERIGEVLDAEHPDLVIFTGDVVYSSPADKGMLQVLGQVERRHLPFVVTFGNHDNEQGKTRAELYDLIRGVAGNLLPDRGASPSPDYILTMKSSADASKDAALLYCMDSHSYSSLKDVDGYAWLTFGQVSWYRAQSAAYTARNGGKPYPALAFFHIPLPEYNEAAANENAILRGTRMEKACAPQLNTGMFAAMKEAGDVMGVFVGHDHDNDYAVMWKNILLAYGRFTGGNTEYNHLPNGARVIVLNEGTRTFETWIRQKGGVVDSTSYPSDYVKDDWRKR	failed
MDERNVSKPAMRGHKLVLNNRTASLVTGVKDVLSFDLNEVLLETEQGMLMVKGTDLHVNRLSLEKGEVDLSGNIDSIAYSDVHAEQKQGENLFARLFR	failed
MSTSFTMIGGEGPNSYREHSKYQGALVIAAKEKINEAISTKLDIDFTSNLVNIADFGCSSGPNTFTAVQTLIDAVENKYKKESNIEGIEFQVFFNDSSNNDFNTLFKTLPPARLYFASGVPGSFFGRVLPKNSLHVGVSSYSLHFVSKVPKEIKDRDSLVWNKDIHCSGSSKEVVKLYLGQYKIDVGSFLTARAQELVSGGLLLLLGSCRPTGVQMFETVEGMMIDFIGSSLNEIANQGLIDQQKLDTFKLPIYAPNVDELKQIIEDNKCFTIEAFEKISHAKGEYPLDPEYLTSAFKVTVGGSVASLFGQDGMEKTYELVKEKTQEMLPQIAKAKPGMQYLIVLRRN	failed

* * *

- measurement.protocol: label from the status in PepcDB records
measured.attribute: protein production

biosequence	protein production
MESITVTELKEKILDANPVNIVDVRTDQETAMGIIPGAETIPMNSIPDNLNYFNDNETYYIICKAGGRSAQVVQYLEQNGVNAVNVEGGMDEFGDEGLDIKSILEHHHHHH	not failed
MKNPQSKADDILQCARTLIIRGGYNSFSYADISQVVGIRNASIHHHFPSKSDLVCKLVSQYRQEAEAGIAELEKNISDPLEQLRAYIGYWEGCIADATHPFCVCALLASEIPVLPETVVLEVRAHFRSLSDWLTAVLERGIAQGRLVLTGTARANAEIFMATVHGAMLSARAHGDAATFGAITRPMLERITA	not failed
MTAIRFDHVDVIFGTHTKEALKLLDQGLGRAEILKRTGQVLGVEDACLDVNRGEICVLMGLSGSGKSSLLRCINGLNKVSRGKLLIEHEGSQVDIANCSPATLKAMRTKRIAMVFQKFALMPWLTVAENVGFGLEMQGRPAAERKKLIDEKLELVGLSQWRDKRPDSLSGGMQQRVGLARALAMDGDILLMDEPFSALDPLIRQQLQDELLVLQRQLHKTIVFVSHDLDEALKIGTRIAIMKDGRIIQHGKPEEIVLSPADDYVRTFVAHTNPLNVLCGQSLMRGLDQCIRQNDEICFDQGRDCWIGLSEGDVLKGARQGSNVIDLQRWRQGDPVEKLRREPTLVDVSIRMRDALQIRYQTGHKLVLQEQDRVVGVLGDSELYHALLGKN	failed
MANIKIRQETPTAFYIKVHDTDNVAIIVNDNGLKAGTRFPDGLELIEHIPQGHKVALLDIPANGEIIRYGEVIGYAVRAIPRGSWIDESMVVLPEA	not failed
MLSTSRSRFIRNTNESGEEVTTFFDYDYGAPCHKFDVKQIGAQLLPPLYSLVFIFGFVGNMLVVLILINCKKLKCLTDIYLLNLAISDLLFLITLPLWAHSAANEWVFGNAMCKLFTGLYHIGYFGGIFFIILLTIDRYLAIVHAVFALKARTVTFGVVTSVITWLVAVFASVPGIIFTKCQKEDSVYVCGPYFPRGWNNFHTIMRNILGLVLPLLIMVICYSGILKTLLRCRNEKKRHRAVRVIFTIMIVYFLFWTPYNIVILLNTFQEFFGLSNCESTSQLDQATQVTETLGMTHCCINPIIYAFVGEKFRRYLSVFFRKHITKRFCKQCPVFYRETVDGVTSTNTPSTGEQEVSAGL	failed

Per the records, this sequence ( `MKWEMGLQEEYIELIKAGKKKIEGRLYDEKRRQIKPGDIIIFEGGKLKVKVKGIRVYSSFKEMLEKEGIENVLPGVKSIEEGVKVYRQFYDEEREKKYGVVAIEIEPIE` ) has protein production equal to not failed

Noted for `MKLPHALSHWFPHKYAIDAKRLGDERTLAWSNLGYWADTSDYKTACRQLADGLADAVQLSSTDRLLDLGCGQGASLQHWVEHYQIQSLCAVELQLDHVKRIQHAFPQLEKMIQGSFLDLRPDTFKPHFDVVMCIDAAYHSALTSFLTAVGSVLKSKGRLGFHYLLLSEKWTQLPVWQRQKYKYLLKAADVELDDLADVTTTEHTLRAQGFDQIQIVDMTTDVFGGFARYMASRPYHSKQNIDERKIRATAKLCQYLCDQGIVRYVQIAATKQ` : its protein production reads failed

* * *

- measurement.protocol: label from the status in PepcDB records
measured.attribute: protein production

Example entries and their recorded answers appear below.
biosequence	protein production
MKKYFITIMILLFGTLILAACQNSDEADNYEPPKVDLKDQIPIILIHGSGGNASSLDKMADQLMNEYRSSNEALTMTVNSEGKIKFEGKLTKDAKRPIIKFGFEQNQATPDDWSKWLKIAMEDLKSRYGFTQMDGVGHSNGGLALTYYAEDYAGDKTVPTLRKLVAIGSPFNDLDPNDNGMDLSFKKLPNSTPQMDYFIKNQTEVSPDLEVLAIAGELSEDNPTDGIVPTISSLATRLFMPGSAKAYIEDIQVGEDAVHQTLHETPKSIEKTYWFLEKFKTDETVIQLDYK	failed
MEVIVVDDEELSLNRLGNMLAGMPGVEVCGLFYTAAEALRYINENKPDAVFLDICIPETDGLALANKIKDIDGSAKVVFVTGYDEYAVRAFELEAVDYLMKPISRDRLEKTVQRLQRTLLGTDRQSNPQMKVSCFGGFRATVCESDSGSVNWRSPKTEELFAFLIFKRNVSRDEIANTLWDGLEPGRALTNINSTMYYIRKALSPHGLEKCIAATRKEIRIDSELISCDLYEFERLLRGRPSSKDRVETLDRLAELYKGELFQGKAYEWSFAKSRSLESGFISALLETAEYYREKRGYEQAEKMYKRAFEIDPFNEDICGHIIQICLKMGRKSEALRLYLQMEKFLMEELGEKPQAKLKKLFEEQ	failed
MRILFVGPPLYGLLYPVLSLAQAFRVNGHEVLIASGGKFAQKAAEAGLVVFDAAPGFDSEAGYRRQEALRKENNIGTKMGNFSFFSEEMTDPLVAFAGQWRPDLIVYPPLGVVGPLIAAKYDIPVVMQTVGFGHTPWHIKGVTKSLSNAYRRHGVSAPPRDLAWIDVTPPSMSILQNDGEPVISMQYVPYNGGAVWEEWWERTPDRKRLLVSLGTVKPMVDGLDLISWVMDSAGEVDAEIILHLPANARSDLRSLPPNVRLVDWLPMGVFLNGADGFIHHGGAGNTLTALHAGIPQIVFGQGADRPVNARAVVERGCGIIPGKSGLTSSMINTFLGNRALREASQEVAAEMAAQPCPTEVAKKLIAMLQHGLEHHHHHH	failed
MTTIRVENLSKIFKKGKTEVKAVDNVSITIDSGMAFGVLGPSGHGKTTFLRLIAGLEEPTSGYIYFDNEAVSSPRRVMMSPEKRGIAMVFQNWALYPNMTVFDNIAFPLKLAKVPKDKIENKVKEVSEELGLSGVLNRYPKELSGGQMQRTAIARALVKDPKVLLLDEPFSNLDAQIRESARALVRKIQRERKLTTLIVSHDPADIFAIANKAGVIVNGKFAQIGTPTEIYEYPATDLIARLTGEINLIQAKIIENNAIIANLKVPLNNMELKGQSNIVIGLRPDDLTLSDTLLDKYIDMGIVKVKLVSYGAGIFKIVVSPITDENIDIIVDAEEPLETGIETHLLAKPNKVKIFDLNGSNLITSKTQIIK	failed

Recorded result, `MQVISPSSPAPRFAGKERFSEVYGELNDDFGSKLKISSKEEENRDDDSWWNQNGTDKDDEGREEDFSFASVNADNSPITADEAFEDGQIRPVYPLFNRNIFFDDPEEKTLRSPLKKLFVESTTTEEEEEESDTVGPYCSWTNRTVEQASPETCRKSNSTGFSKLWRFRDLVLRSNSDGKDAFVFLSNGSSSTSSTSSTAARLSGVVKSSEKGKEKTKTDKKKDKMRTKSAHEKLYMRNRAMREEGKRRSYLPYKHVGFFTNVNGLTRNVHPY` , protein production: failed

Please fill in: protein production reported for `MAPLQTPLCSEIGIDHPVVQAPVGSVSTPSLAAAVADAGGLGMLAMSWREADAIRDAYTDAANATDGVVGVNVVLDESTGVLSPSACLDACLDAGAPVVSFSFGDAGPYIDRVHEVGGTVMVTVASAAEARAAVDAGADVVVAQGREAGGHVQSDVTTMSLLPRVADGVPVPVVAAGGLGDGRGLAAALTLDADGGWFGTRFVATEESGAHEAYRQQIVDAPETATRFTDLFDRGWPDQPHRVLETDEVRQQAGADSGGESDGSDPEQIAQMPDGEPISRFADMPPLAGMTGDVEALPHYAGQSTGLAQDVRPAGEVVARLVSDARAALADASAAAE` = failed

The reported protein production of the sequence `MVIDQTDPIYVLFHDEEWGVPVRDDKKLFELLVFSQALAEFSWPSILRRRDDFRKLFEEFDPSAIAQFTEKRLMSLRVNGCLILSEQKLRAIVENAKSVLKVKQEFGSFSNYCWRFVNHKPLRNGYRYGRQVPVKSPKAEYISKDMMQRGFRCVGPTVMYSFLQASGIVNDHLTACFRYQECNVETERETKSHETETKLDLHSPLLV` was failed

Just so you know, measured protein production for `MTQDNASGDQVSKQHKAFLRKLYLAHLMDDARHNLLSLGKLTGMPRRTLQDAIASFADIGIEVEFVQDGERHNAGYYRIRTWGPISSAWMDTHVDEVKSLLGVDDAVGQATAGNGA` came out at not failed

For record `MATESSESEEEGKISGGNYKLIIDDDLREMGKNAAWSVSSYGLQPHLINIQFQKKVKLQLVVLYVDFKLDESYTPSKISIRAGDGFHNLKEIKSVELVKPTGWVCLSLSGTDPRETFCQESR` the listed protein production is failed

Sample `MATLKVSDSVPAPSDDAEQLRTAFEGWGTNEDLIISILAHRSAEQRKVIRQAYHETYGEDLLKTLDKELSNDFERAILLWTLEPGERDALLANEATKRWTSSNQVLMEVACTRTSTQLLHARQAYHARYKKSLEEDVAHHTTGDFRKLLVSLVTSYRYEGDEVNMTLAKQEAKLVHEKIKDKHYNDEDVIRILSTRSKAQINATFNRYQDDHGEEILKSLEEGDDDDKFLALLRSTIQCLTRPELYFVDVLRSAINKTGTDEGALTRIVTTRAEIDLKVIGEEYQRRNSIPLEKAITKDTRGDYEKMLVALLGEDDA` ; protein production observed: not failed

Reference source: a protein production outcome set (Wang et al. 2014)
